target: dihydrooroate dehydrogenase (Homo sapiens, UniProt Q02127); construct: ultracentrifugation at 4° C. and 120,000×g for 60 minutes afforded a mitochondrial/microsomal fraction; endogenous in cells; host or cells: U-937 (human histiocytic lymphoma cell line), mitochondrial/microsomal fraction; experiment: dihydroorotate dehydrogenase inhibition, U-937 mitochondrial/microsomal fraction, DCIP absorbance at 620 nm; type: biochemical; conditions: DHODH of human U-937 cell mitochondrial/microsomal fraction; 37° C., 120 minutes
Sequence (Q02127 whole entry): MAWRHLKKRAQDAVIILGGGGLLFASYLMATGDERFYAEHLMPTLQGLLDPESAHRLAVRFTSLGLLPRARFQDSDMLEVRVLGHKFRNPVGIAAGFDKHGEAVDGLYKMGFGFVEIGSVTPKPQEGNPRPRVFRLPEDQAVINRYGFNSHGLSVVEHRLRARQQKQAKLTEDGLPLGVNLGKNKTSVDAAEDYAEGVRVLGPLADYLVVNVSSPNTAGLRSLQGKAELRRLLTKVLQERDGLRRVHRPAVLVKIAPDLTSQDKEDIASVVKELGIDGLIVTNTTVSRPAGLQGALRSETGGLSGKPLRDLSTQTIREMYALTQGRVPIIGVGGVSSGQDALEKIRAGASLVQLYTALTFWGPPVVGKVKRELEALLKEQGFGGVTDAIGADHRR
test_readout: pIC50
pIC50 field: float, defined as -log10 of concentration (mol/L).

The examples below pair each entry with its known result.
- chem_smiles: "C/C(=C\\c1cc(C)c(-c2ccc(NC(C)C)cc2F)cc1C)C(=O)NC(C)C"
  system_under_test: "dihydrooroate dehydrogenase (Homo sapiens, UniProt Q02127)"
  pIC50: 7.98
- chem_smiles: "COc1cc(-c2ccc(NCc3ccco3)cc2F)c(OC)cc1/C=C(/F)C(=O)NC(C)C"
  system_under_test: "dihydrooroate dehydrogenase (Homo sapiens, UniProt Q02127)"
  pIC50: 8.00
- chem_smiles: "C/C(=C\\c1c(C)c(C)c(-c2ccc(NC(C)C)cc2)c(C)c1C)C(=O)NC1CCCC1"
  system_under_test: "dihydrooroate dehydrogenase (Homo sapiens, UniProt Q02127)"
  pIC50: 8.62
- chem_smiles: "C/C(=C\\c1cc(C)c(-c2ccc(NC3CCCC3)cc2)cc1C)C(=O)NC(C)(C)C"
  system_under_test: "dihydrooroate dehydrogenase (Homo sapiens, UniProt Q02127)"
  pIC50: 8.05
- chem_smiles: "CC/C(=C\\c1cc(C)c(-c2ccc(NC(C)C)cc2F)cc1C)C(=O)NC1CCCC1"
  system_under_test: "dihydrooroate dehydrogenase (Homo sapiens, UniProt Q02127)"
  pIC50: 8.19

Could you now look at the following molecule, please?
query: Give the reported pIC50 for this molecule. `COc1cc(-c2ccc(NCc3ccco3)cc2F)c(OC)cc1/C=C(\C)C(=O)NC1CC1`
result: 8.14

----------
target: dihydrooroate dehydrogenase (Homo sapiens, UniProt Q02127); construct: ultracentrifugation at 4° C. and 120,000×g for 60 minutes afforded a mitochondrial/microsomal fraction; endogenous in cells; test: dihydroorotate dehydrogenase inhibition, U-937 mitochondrial/microsomal fraction, DCIP absorbance at 620 nm; conditions: DHODH of human U-937 cell mitochondrial/microsomal fraction; 37° C., 120 minutes
test_readout: IC50 (nM)
Hi! Could you send only the number? It should be in nM, unit omitted.

query: Identify IC50 associated with the compound CC/C(=C\c1cc(C)c(-c2ccc(NCc3ccco3)cc2)cc1C)C(=O)NC1CCCC1 [Compound 309]
result: 4.07

query: Please give the documented IC50 of Cc1cc(-c2cc(O)c3[nH]ccc3c2)c(C)cc1/C=C(\Cl)C(=O)NC(C)C [Compound 267]
result: 7.31

query: Return IC50 for the following compound: C/C(=C\C(=O)NC(C)C)c1cc(C)c(-c2ccc3[nH]ccc3c2)cc1C [Compound 252]
result: 13.6

query: Quote IC50 reported for C/C(=C\c1c(C)c(F)c(-c2ccc(NC(C)C)cc2)c(C)c1F)C(=O)NC1CC1 [Compound 488] please.
result: 10

query: Give the reported value of IC50 for this record: C/C(=C\c1c(C)c(C)c(-c2ccc(NC3CCCC3)cc2)c(C)c1C)C(=O)NC1CC1 [Compound 426]
result: 1.01
